- system tested: human glycine transporter-2 (GlyT2) (Homo sapiens)
- Construct: The entire coding region of the human GlyT2 cDNA was cloned into the mammalian expression vector pClNeo; expressed in transfected cells; host or cells: Cos-7 cells (African green monkey kidney, ATCC), stably transfected, G418-selected; vector pClNeo
- Sequence (Q9Y345 whole entry): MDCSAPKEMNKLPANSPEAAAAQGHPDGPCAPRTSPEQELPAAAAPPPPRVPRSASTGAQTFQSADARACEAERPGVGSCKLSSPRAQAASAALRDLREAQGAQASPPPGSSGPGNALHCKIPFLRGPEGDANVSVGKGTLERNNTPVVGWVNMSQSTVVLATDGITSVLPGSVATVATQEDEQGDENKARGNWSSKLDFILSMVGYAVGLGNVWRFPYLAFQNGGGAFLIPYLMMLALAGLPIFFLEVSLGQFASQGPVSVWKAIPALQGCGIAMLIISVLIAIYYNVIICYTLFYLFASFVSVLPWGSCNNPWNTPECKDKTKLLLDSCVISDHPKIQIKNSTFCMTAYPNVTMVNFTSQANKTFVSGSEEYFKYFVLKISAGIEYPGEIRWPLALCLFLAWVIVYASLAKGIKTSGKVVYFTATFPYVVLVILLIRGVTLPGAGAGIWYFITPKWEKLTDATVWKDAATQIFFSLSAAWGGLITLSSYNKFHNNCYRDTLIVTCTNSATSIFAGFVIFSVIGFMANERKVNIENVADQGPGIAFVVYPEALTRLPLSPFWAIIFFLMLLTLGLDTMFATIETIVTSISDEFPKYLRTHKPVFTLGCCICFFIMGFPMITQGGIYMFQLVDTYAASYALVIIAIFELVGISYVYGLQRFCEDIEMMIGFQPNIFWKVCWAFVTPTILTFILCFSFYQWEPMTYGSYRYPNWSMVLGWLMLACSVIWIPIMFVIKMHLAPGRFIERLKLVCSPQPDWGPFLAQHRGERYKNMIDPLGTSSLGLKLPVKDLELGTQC
- assay explanation: Inhibition of [14C]-glycine uptake in COS-7 cells transfected with human GlyT2
- Type: cell-based
- experimental parameters: Table 2, 20 μM, 2 h at 37° C., Cos-7 cells stably transfected with human GlyT2
- Method: GlyT2 antagonist activity of representative compounds of the invention was determined in accordance with the assay described in the Examples and by measuring the ability of compounds to inhibit the uptake of [^14C]-glycine in COS-7 cells transfected with the human glycine transporter-2 (GlyT2). The GlyT2 antagonist activities of these representative compounds are set forth hereinafter in Table 1. […]
What IC50 was measured for each of the following?
Give bare numbers, in µM.

Below are some compounds; for each one, tell me its IC50.
1. CC(C)N(CCNC(=O)[C@H](Cc1ccccc1)NC(=O)Nc1ccc(-c2cccs2)cc1)C(C)C
2. O=C(/C=C/[C@H](Cc1ccccc1)NC(=O)Nc1ccc(-c2ccccc2)cc1)NCCN1CCCC1

1: 0.405; 2: 0.112

Below are some compounds; for each one, tell me its IC50.
1. O=C(/C=C/[C@H](Cc1ccccc1)NC(=O)Nc1ccc(Oc2ccc(F)cc2)cc1)NCCN1CCCC1
2. O=C(CNc1ccc(Oc2ccc(Cl)cc2)cc1)N[C@@H](Cc1ccccc1)C(=O)NCCN1CCCC1

[0.039, 0.058]

* * *

- system tested: human glycine transporter-2 (GlyT2) (Homo sapiens)
- Construct: The entire coding region of the human GlyT2 cDNA was cloned into the mammalian expression vector pClNeo; expressed in transfected cells; host or cells: Cos-7 cells (African green monkey kidney, ATCC), stably transfected, G418-selected; vector pClNeo
- assay explanation: Inhibition of [14C]-glycine uptake in COS-7 cells transfected with human GlyT2
- Type: cell-based
- experimental parameters: Table 2, 20 μM, 2 h at 37° C., Cos-7 cells stably transfected with human GlyT2
- Method: GlyT2 antagonist activity of representative compounds of the invention was determined in accordance with the assay described in the Examples and by measuring the ability of compounds to inhibit the uptake of [^14C]-glycine in COS-7 cells transfected with the human glycine transporter-2 (GlyT2). The GlyT2 antagonist activities of these representative compounds are set forth hereinafter in Table 1. […]
One threshold, 600 nM, splits the recorded IC50 values: lower ones are label 1, equal or higher ones are label 0.

Some entries whose results are on file:
>>> assigned_category("O=C(Nc1ccc(-c2ccccc2)cc1)N[C@@H](Cc1cccnc1)C(=O)NCCCN1CCCC1")
"label 0"
>>> assigned_category("CN(C)CCN(C)C(=O)C(Cc1ccccc1)NC(=O)Nc1ccc(-c2ccccc2)cc1 (centres unmarked)")
"label 0"
>>> assigned_category("O=C(Nc1ccc(S(=O)(=O)c2ccc(Cl)cc2)cc1)N[C@@H](Cc1ccccc1)C(=O)NCCN1CCCC1")
"label 1"

Strictly below 600 nM: is that where IC50 of `O=C(Nc1ccc(-c2ccccc2)cc1)NC1(C(=O)NCCN2CCCC2)Cc2ccccc2C1` sits? label 0

Strictly below 600 nM: is that where IC50 of `CC(C)NCCNC(=O)/C=C/[C@H](Cc1ccccc1)NC(=O)Nc1ccc(-c2ccccc2)cc1` sits? label 1

Strictly below 600 nM: is that where IC50 of `CCN(CC)CCNC(=O)/C=C/[C@H](Cc1ccccc1)NC(=O)Nc1ccc(-c2ccccc2)cc1` sits? label 1

Strictly below 600 nM: is that where IC50 of `O=C(C[C@H](Cc1ccccc1)NC(=O)CNc1ccc(Oc2ccc(Cl)cc2)cc1)NCCN1CCCC1` sits? label 1

* * *

- system tested: human glycine transporter-2 (GlyT2) (Homo sapiens)
- Construct: The entire coding region of the human GlyT2 cDNA was cloned into the mammalian expression vector pClNeo; expressed in transfected cells; host or cells: Cos-7 cells (African green monkey kidney, ATCC), stably transfected, G418-selected; vector pClNeo
- assay explanation: Inhibition of [14C]-glycine uptake in COS-7 cells transfected with human GlyT2
- Assay type: cell-based
- experimental parameters: Table 2, 20 μM, 2 h at 37° C., Cos-7 cells stably transfected with human GlyT2
measured endpoint: log10(IC50) (log10 of the value in nM)
Plainly stated, the numbers are log10 of IC50 given in nM.

Consider the worked cases shown below.
>>> reported_result("CCCNCCNC(=O)CC[C@H](Cc1ccccc1)NC(=O)Nc1ccc(-c2ccccc2)cc1")
1.88
>>> reported_result("NCCNC(=O)[C@H](Cc1ccccc1)NC(=O)Nc1ccc(Oc2ccccc2)cc1")
2.60
>>> reported_result("CC(C)N(CCNC(=O)[C@H](Cc1ccccc1)NC(=O)Nc1ccc(Oc2ccc(Cl)cc2)cc1)C(C)C")
1.26
>>> reported_result("CC(C)NCCNC(=O)CC[C@H](Cc1ccccc1)NC(=O)Nc1ccc(-c2ccccc2)cc1")
1.76

Below are some compounds; for each one, tell me its log10(IC50).
1. NCCNC(=O)CC[C@H](Cc1ccccc1)NC(=O)Nc1ccc(Oc2ccccc2)cc1
2. NCCCNC(=O)/C=C/[C@H](Cc1ccccc1)NC(=O)Nc1ccc(-c2ccccc2)cc1

1: 2.70; 2: 3.50
